meta.source: patent US11618747B2

Tested system: full length (FL) LXRα (Homo sapiens, UniProt Q13133)
Construct: the full length (FL) proteins of LXRα (amino acids 1-447); NP005684; expressed in transfected cells; host or cells: HEK293
Sequence (Q13133 1-447): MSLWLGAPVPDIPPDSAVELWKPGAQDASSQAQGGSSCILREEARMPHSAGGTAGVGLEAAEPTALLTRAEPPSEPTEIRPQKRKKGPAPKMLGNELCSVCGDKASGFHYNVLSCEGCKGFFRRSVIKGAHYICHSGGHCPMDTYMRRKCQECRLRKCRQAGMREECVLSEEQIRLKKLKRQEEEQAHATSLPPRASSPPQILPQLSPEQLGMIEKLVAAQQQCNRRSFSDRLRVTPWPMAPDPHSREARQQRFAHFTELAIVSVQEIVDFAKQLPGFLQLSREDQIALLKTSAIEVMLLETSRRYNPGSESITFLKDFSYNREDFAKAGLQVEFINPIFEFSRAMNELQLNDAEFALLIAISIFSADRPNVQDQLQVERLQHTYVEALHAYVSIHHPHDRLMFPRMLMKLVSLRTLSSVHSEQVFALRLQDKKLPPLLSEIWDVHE
Assay remarks: LXR Gal4 reporter transient transfection assay (FL-M2H Gal4α)
Format: cell-based
Measurement setup: HEK293 cells, full length LXRα; read-out: FL-M2H Gal4α (EC50 range)
pEC50: −log10 of the molar value.
Property name: pEC50

Query: Requested field: pEC50. Item: "O=C(O)c1ccc(-c2cccc(-c3c(-c4ccsc4C(F)(F)F)c4cc(F)ccc4n3S(=O)(=O)c3ccc(C(F)F)cc3)c2)c(Cl)c1"
Result: > 7.00

Query: Also "N#Cc1ccccc1-c1c(-c2cccc(-c3ccc(C(=O)O)cc3Cl)c2)n(S(=O)(=O)c2ccc(C(F)F)cc2)c2cccnc12" ?
Result: 6.00 to 7.00

Query: Continue with "O=C(O)c1ccc(-c2cccc(-c3c(-c4ccsc4C(F)F)c4cc(F)ccc4n3S(=O)(=O)c3ccc(Cl)cc3)c2)c(Cl)c1"
Result: > 7.00

Query: Item: "O=C(O)c1ccc(-c2cccc(-c3c(-c4ccccc4C4COC4)c4cnccc4n3S(=O)(=O)c3ccc(C(F)F)cc3)c2)c(Cl)c1"
Result: 6.00 to 7.00

Query: For "Cc1ccc(S(=O)(=O)n2c(-c3cccc(-c4ccc(C(=O)O)c(Cl)c4)c3)c(-c3ccsc3C#N)c3cc(F)ccc32)cc1" then?
Result: > 7.00

Query: Record: "O=C(O)c1ccc(-c2cccc(-c3c(-c4cccc5nncn45)c4cc(F)ccc4n3S(=O)(=O)c3ccc(C(F)F)cc3)c2)c(Cl)c1"
Result: 6.00 to 7.00

* * *

Would you mind telling me the reported pEC50 of each entry?
Tested system: LXRβ ligand-binding domain (Homo sapiens, UniProt P55055, DUP175-175)
Construct: amino acids 156-461; NP009052; made in house; host or cells: E. coli
Sequence (P55055 with tags, fused parts or gaps DUP175-175 limits assumed): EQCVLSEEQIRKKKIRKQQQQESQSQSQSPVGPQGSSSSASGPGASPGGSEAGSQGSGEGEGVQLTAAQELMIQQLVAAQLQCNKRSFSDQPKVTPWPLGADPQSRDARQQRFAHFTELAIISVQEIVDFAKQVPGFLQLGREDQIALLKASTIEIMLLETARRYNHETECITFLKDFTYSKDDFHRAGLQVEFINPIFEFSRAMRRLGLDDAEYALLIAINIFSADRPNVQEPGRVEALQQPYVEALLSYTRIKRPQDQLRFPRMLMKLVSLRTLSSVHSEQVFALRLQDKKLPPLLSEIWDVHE
Assay remarks: TR-FRETβ activity assay (NCoA3 coactivator peptide recruitment)
Type: biochemical
Measurement setup: TR-FRET, 1 μM 24(S)-25-epoxycholesterol prestimulation; read-out: FRETβ (EC50 range)
pEC50: −log10 of the molar value.

Query: Under LXRβ ligand-binding domain (Homo sapiens, UniProt P55055, DUP175-175): pEC50 value of Cc1ccc(S(=O)(=O)n2c(-c3cc(C4CC4C(=O)O)cs3)c(-c3ccsc3C#N)c3ccccc32)cc1 (centres unmarked) ?
Result: 5.00 to 6.00

Query: What about Cc1ccc(S(=O)(=O)n2c(-c3cccc(-c4ccc(C(C(=O)O)N(C)C)cc4Cl)c3)c(-c3ccsc3C#N)c3cc(F)ccc32)cc1 (centres unmarked) ?
Result: > 7.00

Query: Please answer likewise for "COc1ccc(S(=O)(=O)n2c(-c3ccccc3)c(-c3ccsc3C)c3ccccc32)cc1"
Result: 5.00 to 6.00

Query: Same again, this time with "N#Cc1cccc(F)c1-c1c(-c2cccc(-c3ccc(C(=O)O)cc3Cl)c2)n(S(=O)(=O)c2ccc(C(F)F)cc2)c2ccc(F)cc12"
Result: > 7.00

Query: Ok, now "COCc1sccc1-c1c(-c2cccc(N3CC(C(=O)O)C3)c2)n(S(=O)(=O)c2ccc(C)cc2)c2ccc(F)cc12"
Result: 5.00 to 6.00

Query: Same lookup for "Cc1n[nH]c(C)c1-c1c(-c2cccc(-c3ccc(C(=O)O)cc3Cl)c2)n(S(=O)(=O)c2ccc(C(F)F)cc2)c2ccc(F)cc12" , please.
Result: 6.00 to 7.00

Query: // repeat for "N#Cc1cccc(C#N)c1-c1c(-c2cccc(-c3ccc(C(=O)O)c(F)c3F)c2)n(S(=O)(=O)c2ccc(C(F)F)cc2)c2ccc(F)cc12" and report
Result: > 7.00

Query: For "Cc1ccc(S(=O)(=O)n2c(-c3cccc(-c4ccc(C(=O)O)cc4)c3)c(-c3ccsc3C#N)c3cc(F)ccc32)cc1C" then?
Result: 6.00 to 7.00

Query: Check "N#Cc1cncc(C#N)c1-c1c(-c2cccc(-c3ccc(C(=O)O)cc3Cl)c2)n(S(=O)(=O)c2ccc(C(F)F)cc2)c2ccc(F)cc12" too.
Result: 6.00 to 7.00

Query: Quick one: "N#Cc1sccc1-c1c(-c2cccs2)n(S(=O)(=O)c2ccc(Cl)cc2)c2cc(C(=O)O)ccc12"
Result: < 5.00

Query: Can you handle "N#Cc1sccc1-c1c(-c2ccccc2)n(S(=O)(=O)c2cccnc2)c2ccccc12" next?
Result: 5.00 to 6.00

Query: Would you kindly repeat that for "N#Cc1sccc1-c1c(-c2cccc(N3CC(C(=O)O)C3)c2)n(S(=O)(=O)c2ccc(C(F)F)cc2)c2ccc(F)cc12" ?
Result: 6.00 to 7.00

Query: Repeat with "N#Cc1sccc1-c1c(-c2cccs2)n(S(=O)(=O)c2ccc(Cl)cc2)c2ccccc12"
Result: 6.00 to 7.00

Query: Entry "Cn1cccc(-c2c(-c3cccc(-c4ccc(C(=O)O)cc4Cl)c3)n(S(=O)(=O)c3ccc(C(F)F)cc3)c3ccc(F)cc23)c1=O" please
Result: 6.00 to 7.00
